assay: In vivo volume distribution (Vd) was determined in murine septicemia at dose of 50 mg/kg; type: ADME, organism-based; design: dose 50 mg/kg; conditions: mouse

Molecule: CCCCCCCCCC(=O)N[C@@H](Cc1c[nH]c2ccccc12)C(=O)N[C@H](CC(N)=O)C(=O)N[C@@H](CC(=O)O)C(=O)N[C@@H]1C(=O)NCC(=O)N[C@@H](CCCNC(=O)C(N)CCc2c[nH]c3ccccc23)C(=O)N[C@@H](CC(=O)O)C(=O)N[C@H](C)C(=O)N[C@@H](CC(=O)O)C(=O)NCC(=O)N[C@H](CO)C(=O)N[C@@H]([C@H](C)CC(=O)O)C(=O)N[C@@H](CC(=O)c2ccccc2N)C(=O)O[C@@H]1C (stereo not given in full)
Vd: 0.216 L/kg

Molecule: CCCCCCCCCC(=O)N[C@@H](Cc1c[nH]c2ccccc12)C(=O)N[C@H](CC(N)=O)C(=O)N[C@@H](CC(=O)O)C(=O)N[C@@H]1C(=O)NCC(=O)N[C@@H](CCCNC(=O)c2c(N)ccc3ccccc23)C(=O)N[C@@H](CC(=O)O)C(=O)N[C@H](C)C(=O)N[C@@H](CC(=O)O)C(=O)NCC(=O)N[C@H](CO)C(=O)N[C@@H]([C@H](C)CC(=O)O)C(=O)N[C@@H](CC(=O)c2ccccc2N)C(=O)O[C@@H]1C
Vd: 0.143 L/kg

Molecule: CCCCCCCCCC(=O)N[C@@H](Cc1c[nH]c2ccccc12)C(=O)N[C@H](CC(N)=O)C(=O)N[C@@H](CC(=O)O)C(=O)N[C@@H]1C(=O)NCC(=O)N[C@@H](CCCN)C(=O)N[C@@H](CC(=O)O)C(=O)N[C@H](C)C(=O)N[C@@H](CC(=O)O)C(=O)NCC(=O)N[C@H](CO)C(=O)N[C@@H]([C@H](C)CC(=O)O)C(=O)N[C@@H](CC(=O)c2ccccc2N)C(=O)O[C@@H]1C
Vd: 0.251 L/kg

Molecule: CCCCCCCCCC(=O)N[C@@H](Cc1c[nH]c2ccccc12)C(=O)N[C@H](CC(N)=O)C(=O)N[C@@H](CC(=O)O)C(=O)N[C@@H]1C(=O)NCC(=O)N[C@@H](CCCNC(=N)N)C(=O)N[C@@H](CC(=O)O)C(=O)N[C@H](C)C(=O)N[C@@H](CC(=O)O)C(=O)NCC(=O)N[C@H](CO)C(=O)N[C@@H]([C@H](C)CC(=O)O)C(=O)N[C@@H](CC(=O)c2ccccc2N)C(=O)O[C@@H]1C
Vd: 0.198 L/kg

Molecule: CCCCCCCCCC(=O)N[C@@H](Cc1c[nH]c2ccccc12)C(=O)N[C@H](CC(N)=O)C(=O)N[C@@H](CC(=O)O)C(=O)N[C@@H]1C(=O)NCC(=O)N[C@@H](CCCNC(=O)[C@@H](N)CCCCN)C(=O)N[C@@H](CC(=O)O)C(=O)N[C@H](C)C(=O)N[C@@H](CC(=O)O)C(=O)NCC(=O)N[C@H](CO)C(=O)N[C@@H]([C@H](C)CC(=O)O)C(=O)N[C@@H](CC(=O)c2ccccc2N)C(=O)O[C@@H]1C
Vd: 0.147 L/kg
